Exercise: state measured sPAP HepG2 B6 assay: Expt 1 % (EC50 as % of wild type EC50) for each of the binders provided.
Test target: T1, gp130 on HepG2 B6 cells (UniProt P40189 23-918, limits assumed)
T1 sequence (looked up): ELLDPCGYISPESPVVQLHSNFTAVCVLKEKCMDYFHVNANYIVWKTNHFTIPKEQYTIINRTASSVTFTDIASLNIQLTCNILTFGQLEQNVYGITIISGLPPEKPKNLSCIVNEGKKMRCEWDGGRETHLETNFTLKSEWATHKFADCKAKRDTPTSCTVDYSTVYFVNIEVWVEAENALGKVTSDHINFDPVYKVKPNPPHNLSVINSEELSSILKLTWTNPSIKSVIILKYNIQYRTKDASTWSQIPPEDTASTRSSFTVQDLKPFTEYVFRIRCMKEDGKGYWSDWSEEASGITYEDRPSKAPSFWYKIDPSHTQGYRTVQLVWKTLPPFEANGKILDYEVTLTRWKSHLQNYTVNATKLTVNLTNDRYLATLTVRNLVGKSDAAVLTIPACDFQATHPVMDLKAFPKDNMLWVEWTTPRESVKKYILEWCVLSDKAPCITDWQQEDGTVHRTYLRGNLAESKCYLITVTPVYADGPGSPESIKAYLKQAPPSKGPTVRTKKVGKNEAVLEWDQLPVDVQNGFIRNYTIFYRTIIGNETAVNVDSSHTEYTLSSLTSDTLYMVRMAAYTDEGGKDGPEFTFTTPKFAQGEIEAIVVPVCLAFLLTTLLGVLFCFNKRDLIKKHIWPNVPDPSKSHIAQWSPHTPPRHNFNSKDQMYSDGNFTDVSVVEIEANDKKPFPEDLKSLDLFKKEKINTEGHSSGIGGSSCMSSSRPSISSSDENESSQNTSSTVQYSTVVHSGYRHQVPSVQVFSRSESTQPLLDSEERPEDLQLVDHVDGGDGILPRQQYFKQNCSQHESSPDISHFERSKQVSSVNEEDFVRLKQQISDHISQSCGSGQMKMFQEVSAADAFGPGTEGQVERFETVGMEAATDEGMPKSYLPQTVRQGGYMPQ
Test description: cell-based or functional assay
A number alone suffices; assume %.

Prompt: Using the record for OSM-GST mutant Y126A (ligand, not shown: a dimerising Fc or GST; large carriers; small tags and cut ends, Alanine mutant of m4; also called (24)Y126A; 24 Y126A) AAIGSCSKEYRVLLGQLQKQTDLMQDTSRLLDPYIRIQGLDVPKLREHCRERPGAFPSEETLRGLGRRGFLQTLNATLGCVLHRLADLEQRLPKAQDLERSGLNIEDLEKLQMARPNILGLRNNIACMAQLLDNSDTAEPTKAGRGASQPPTPTPASDAFQRKLEGCRFLHGYHRFMHSVGRVFSKWGESPNRSRR , state its measured sPAP HepG2 B6 assay: Expt 1 % (EC50 as % of wild type EC50).
Completion: 386

Prompt: State its sPAP HepG2 B6 assay: Expt 1 % (EC50 as % of wild type EC50) for this binder: OSM-GST mutant K19A (ligand, Alanine mutant of m4; also called (12)K19A; 12 K19A; not shown: Its linker is left out) AAIGSCSKEYRVLLGQLQAQTDLMQDTSRLLDPYIRIQGLDVPKLREHCRERPGAFPSEETLRGLGRRGFLQTLNATLGCVLHRLADLEQRLPKAQDLERSGLNIEDLEKLQMARPNILGLRNNIYCMAQLLDNSDTAEPTKAGRGASQPPTPTPASDAFQRKLEGCRFLHGYHRFMHSVGRVFSKWGESPNRSRR
Completion: 98

Prompt: For the binder OSM-GST mutant N124A (ligand, not shown: a dimerising Fc or GST; large carriers; small tags and cut ends, Alanine mutant of m4; also called (23)N124A; 23 N124A) AAIGSCSKEYRVLLGQLQKQTDLMQDTSRLLDPYIRIQGLDVPKLREHCRERPGAFPSEETLRGLGRRGFLQTLNATLGCVLHRLADLEQRLPKAQDLERSGLNIEDLEKLQMARPNILGLRNAIYCMAQLLDNSDTAEPTKAGRGASQPPTPTPASDAFQRKLEGCRFLHGYHRFMHSVGRVFSKWGESPNRSRR , give its reported sPAP HepG2 B6 assay: Expt 1 % (EC50 as % of wild type EC50).
Completion: 125

Prompt: State, in one line, measured sPAP HepG2 B6 assay: Expt 1 % (EC50 as % of wild type EC50) of OSM-GST mutant G15A (ligand, Alanine mutant of m4; also called (8)G15A; 8 G15A; not shown: Its linker is left out) AAIGSCSKEYRVLLAQLQKQTDLMQDTSRLLDPYIRIQGLDVPKLREHCRERPGAFPSEETLRGLGRRGFLQTLNATLGCVLHRLADLEQRLPKAQDLERSGLNIEDLEKLQMARPNILGLRNNIYCMAQLLDNSDTAEPTKAGRGASQPPTPTPASDAFQRKLEGCRFLHGYHRFMHSVGRVFSKWGESPNRSRR
Completion: 87

Prompt: Recall and state the measured sPAP HepG2 B6 assay: Expt 1 % (EC50 as % of wild type EC50) for OSM-GST mutant L13A (ligand, Alanine mutant of m4; also called (6)L13A; 6 L13A; not shown: Its linker is left out) AAIGSCSKEYRVALGQLQKQTDLMQDTSRLLDPYIRIQGLDVPKLREHCRERPGAFPSEETLRGLGRRGFLQTLNATLGCVLHRLADLEQRLPKAQDLERSGLNIEDLEKLQMARPNILGLRNNIYCMAQLLDNSDTAEPTKAGRGASQPPTPTPASDAFQRKLEGCRFLHGYHRFMHSVGRVFSKWGESPNRSRR .
Completion: 269

Prompt: Given the binder OSM-GST mutant D22A (ligand, not shown: a dimerising Fc or GST; large carriers; small tags and cut ends, Alanine mutant of m4; also called (15)D22; 15 D22) AAIGSCSKEYRVLLGQLQKQTALMQDTSRLLDPYIRIQGLDVPKLREHCRERPGAFPSEETLRGLGRRGFLQTLNATLGCVLHRLADLEQRLPKAQDLERSGLNIEDLEKLQMARPNILGLRNNIYCMAQLLDNSDTAEPTKAGRGASQPPTPTPASDAFQRKLEGCRFLHGYHRFMHSVGRVFSKWGESPNRSRR , write its reported sPAP HepG2 B6 assay: Expt 1 % (EC50 as % of wild type EC50).
Completion: 152

Prompt: Provide sPAP HepG2 B6 assay: Expt 1 % (EC50 as % of wild type EC50) value for the following binder: OSM-GST mutant R122A (ligand, not shown: a dimerising Fc or GST; large carriers; small tags and cut ends, Alanine mutant of m4; also called (21)R122A; 21 R122A) AAIGSCSKEYRVLLGQLQKQTDLMQDTSRLLDPYIRIQGLDVPKLREHCRERPGAFPSEETLRGLGRRGFLQTLNATLGCVLHRLADLEQRLPKAQDLERSGLNIEDLEKLQMARPNILGLANNIYCMAQLLDNSDTAEPTKAGRGASQPPTPTPASDAFQRKLEGCRFLHGYHRFMHSVGRVFSKWGESPNRSRR
Completion: 135
